Consider the following sequences and their measured SH2 binding enrichment readings.
Molecular target: Grb2 SH2 (UniProt P62993)
Sequence (P62993 whole entry, looked up, the tested form may be a part): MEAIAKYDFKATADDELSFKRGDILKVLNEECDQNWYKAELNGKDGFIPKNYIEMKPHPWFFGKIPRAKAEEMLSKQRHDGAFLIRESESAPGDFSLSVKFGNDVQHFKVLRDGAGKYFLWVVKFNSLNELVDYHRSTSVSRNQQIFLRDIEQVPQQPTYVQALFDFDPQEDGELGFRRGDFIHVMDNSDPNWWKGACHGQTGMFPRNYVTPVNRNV
Test: SH2 binding enrichment of the phosphorylated peptide, bacterial display (enrichment ratio); higher = better substrate or ligand; peptides without Tyr show the background;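 also: peptide library displayed on the E. coli surface as eCPX fusions, selected cells deep-sequenced, score is each peptide's frequency after selection divided by its frequency in the input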
Number only, please.

1) DSYWSYCNAVA [SLC20A2_Y436_S434W] = 1.02
2) SLMNQYVNKKF [RAB7A_Y28] = 0.877
3) IGDENYGEGSS [ACO2_Y665] = 0.814

// lookup SH2 binding enrichment for QVQQIYSDSDL [MIB1_Y376_R371Q] 0.965

// lookup SH2 binding enrichment for VSYGEYRYRSV [CFTR_Y515_D513G] 0.529

// lookup SH2 binding enrichment for ASMAKYFASEI [ACADSB_Y372_YF] 0.75

// lookup SH2 binding enrichment for AVLSLYASDRT [ACTA1_Y145_G148D] 0.895

// lookup SH2 binding enrichment for PRIHSYRGHLW [VHL_Y112_R107P] 1.55
